- experiment_description: Plasma pharmacokinetics after single intragastric administration in rats
- Assay type: in vivo, SD rat
- assay_conditions: female, rat, plasma, po; rats ♀, single gavage 10 mg/kg, Mean ± SD; read-out: MRT0-∞
- Experimental: Strain: SD rat; Gender: half male and female. Weight: about 200-250 g. Source: Shanghai Slac Laboratory Animal Co., Ltd. Laboratory Animal Production License No.: SOCK (Shanghai) 2017-0005. Laboratory Animal Use License Certificate number: SYXK (Shanghai) 2014-0018. Breeding: constant temperature purification and ventilation animal room, 20-26° C., free food and water, humidity 40-70%, light for 12 h. Route A: single oral administration. Volume: calculated according to 10 mL/kg body weight. […]
reported_endpoint: MRT inf
Answer format: value, then unit.

Measured MRT inf of CC(C)(O)[C@@H]1CC[C@](C)([C@H]2[C@@H](O)C[C@@]3(C)[C@@H]4C[C@H](O)[C@H]5C(C)(C)C(F)(F)CC[C@@]56C[C@@]46CC[C@]23C)O1 [Compound 2] : 5.01 h
